# credit: ChEMBL document CHEMBL4689842

# Test system: U2OS
# protocol_details: Multiplex assay against U2OS
# Format: toxicity, cell-based
# condition_label: human, 48 h, 1 µM, compound concentration 1 uM, replicate 1
reported_property: Population Hoechst High Intensity Objects (%)
Provide the reading as a plain figure in %.

Previously resolved entries follow.
CC[C@H](C)C(=O)O[C@H]1C[C@@H](C)C=C2C=C[C@H](C)[C@H](CC[C@@H]3C[C@@H](O)CC(=O)O3)[C@H]21: 3
CN1CCN(c2ccc(OC(F)(F)F)c(Nc3ncc4c(n3)-c3c(c(C(N)=O)nn3CCO)CC4)c2)CC1: 5
Cc1csc2c(N[C@@H](C)CN3CCN(S(=O)(=O)c4ccc(Cl)c(Cl)c4)CC3)ncnc12: 3

Query: Item under review: CN1CCC[C@@H]1CCO[C@](C)(c1ccccc1)c1ccc(Cl)cc1.O=C(O)/C=C/C(=O)O [CLEMASTINE FUMARATE] . Reported Population Hoechst High Intensity Objects (%)?
Result: 3

Query: Next molecule: CN1CCN(CCOc2cc(OC3CCOCC3)c3c(Nc4c(Cl)ccc5c4OCO5)ncnc3c2)CC1
Result: 5

###

# System: Fibroblast
# protocol_details: Multiplex assay against human fibroblast
# Format: toxicity, cell-based
# condition_label: 48 h, 10 µM, compound concentration 10 uM, replicate 2
reported_property: Population Normal (%)
Provide the reading as a plain figure in %.

Previously resolved entries follow.
CC(C)NCC(O)COc1ccc(CCOCC2CC2)cc1.Cl (centres undefined) [BETAXOLOL HYDROCHLORIDE]: 79
Cc1[nH]c(/C=C2\C(=O)Nc3ccc(S(=O)(=O)N(C)c4cccc(Cl)c4)cc32)c(C)c1C(=O)N1CCN(C)CC1: 91
CNCc1ccccc1-c1csc([C@H](C)Nc2nc(C)nc3cc(OC)c(OC)cc23)c1: 68

Query: Item under review: OC1(c2ccc(Cl)cc2)CCN(Cc2c[nH]c3ccccc23)CC1 . Reported Population Normal (%)?
Result: 69

###

# Test system: Fibroblast
# protocol_details: Multiplex assay against human fibroblast
# Assay type: toxicity, cell-based
# condition_label: 48 h, 10 µM, compound concentration 10 uM, replicate 1
reported_property: Population Hoechst High Intensity Objects (%)
Provide the reading as a plain figure in %.

Previously resolved entries follow.
COc1cccc([C@@H](C)NCCCc2ccccc2Cl)c1.Cl [TECALCET HYDROCHLORIDE]: 21
COc1cc(-n2cnc3cc(-c4ccc(Cl)cc4)sc3c2=O)ccc1OCCN1CCCC1: 37

Query: Item under review: CNc1nc(NCc2ccc(NS(C)(=O)=O)cc2Cl)cc(-c2ccccn2)n1 . Reported Population Hoechst High Intensity Objects (%)?
Result: 36

Query: Next compound: CNCc1ccccc1-c1csc([C@H](C)Nc2nc(C)nc3cc(OC)c(OC)cc23)c1
Result: 35

Query: Next compound: CN(C)C(=O)N[C@H]1CC[C@H](CCN2CCN(c3cccc(Cl)c3Cl)CC2)CC1.Cl [CARIPRAZINE HYDROCHLORIDE]
Result: 31

Query: Next compound: CC(C)(O)CNc1ncc(-c2ccnc(Nc3ccnc(Cl)c3)n2)c(CC2CC2)n1
Result: 15

Query: Next compound: COc1cc2nccc(Oc3ccc(NC(=O)Nc4cc(C)on4)c(Cl)c3)c2cc1OC.O
Result: 22

Query: Next compound: Cn1cc(-c2[nH]c3cc(NC(=O)[C@H](N)C4CCCCC4)cc4c3c2C=NNC4=O)cn1
Result: 39
